Entry source: patent US20090124682A1

Kindly supply the reported IC50 values for the records listed here.
- subject-of-test: Human recombinant liver glycogen phosphorylase a (hrl GPa) (Homo sapiens)
- Sequence (P06737 whole entry): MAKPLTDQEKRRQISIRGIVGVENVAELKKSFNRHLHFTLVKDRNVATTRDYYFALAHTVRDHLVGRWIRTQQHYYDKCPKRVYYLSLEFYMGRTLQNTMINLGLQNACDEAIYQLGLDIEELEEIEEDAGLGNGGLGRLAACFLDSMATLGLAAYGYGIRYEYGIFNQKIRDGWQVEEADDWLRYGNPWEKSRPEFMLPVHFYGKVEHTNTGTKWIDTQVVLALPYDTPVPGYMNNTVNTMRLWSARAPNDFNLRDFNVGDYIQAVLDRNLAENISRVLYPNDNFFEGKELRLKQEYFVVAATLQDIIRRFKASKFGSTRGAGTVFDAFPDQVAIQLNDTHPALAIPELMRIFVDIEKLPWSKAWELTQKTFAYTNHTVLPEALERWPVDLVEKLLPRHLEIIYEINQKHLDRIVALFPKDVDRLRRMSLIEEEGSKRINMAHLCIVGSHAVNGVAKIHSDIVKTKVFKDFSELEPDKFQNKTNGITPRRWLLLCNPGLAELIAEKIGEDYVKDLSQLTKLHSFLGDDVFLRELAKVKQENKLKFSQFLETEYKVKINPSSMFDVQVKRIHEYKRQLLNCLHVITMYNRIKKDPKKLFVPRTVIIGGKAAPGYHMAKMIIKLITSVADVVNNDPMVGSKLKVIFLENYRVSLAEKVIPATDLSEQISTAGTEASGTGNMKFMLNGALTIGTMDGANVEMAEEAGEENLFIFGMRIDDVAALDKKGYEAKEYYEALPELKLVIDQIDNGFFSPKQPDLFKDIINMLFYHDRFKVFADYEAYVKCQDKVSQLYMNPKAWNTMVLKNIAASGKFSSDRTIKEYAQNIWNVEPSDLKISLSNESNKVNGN
- assay-remarks: glycogen phosphorylase multienzyme coupled assay (glucose-1-phosphate production from glycogen)
- particulars: hrl GPa 20 nM, 6 hours at 30° C., 8 mM glucose
Give bare numbers, in µM.

• O=C(O)COC[C@@H]1c2ccccc2C[C@H]1NC(=O)c1cc2cc(F)ccc2[nH]1 = 1.67

Exercise: Look at this molecule and give its reported IC50. O=C(O)C[C@@H]1c2ccccc2C[C@H]1NC(=O)c1cc2cc(F)ccc2[nH]1
Key: 0.161
